test: In vivo PK study, IP, SC and PO; details: male, CD-1, mouse, plasma, sc, 20 mg/kg
recorded endpoint: CL/F (mL/min/kg)

molecule | reported value
CC(C)Oc1ccc(-c2ncc(CNc3ccnc(C(F)(F)F)c3)cn2)cc1Cl [Compound 24] | 0.93

---

assay: Metabolic stability in mouse liver S9 fractions; assay type: in vitro ADME; details: liver S9 fraction, read-out: Mouse liver S9 t½
recorded endpoint: half-life (min)

test smiles | recorded endpoint | reported value
CC(C)Oc1ccc(-c2ncc(CNc3ccnc(C(F)(F)F)c3)cn2)cc1Cl | half-life | 50

---

target: ENaC channel (Homo sapiens, UniProt P37088+P51168+P51170); experiment: Ion channel profiling at Charles River: ENaC
Sequence (P51170 whole entry): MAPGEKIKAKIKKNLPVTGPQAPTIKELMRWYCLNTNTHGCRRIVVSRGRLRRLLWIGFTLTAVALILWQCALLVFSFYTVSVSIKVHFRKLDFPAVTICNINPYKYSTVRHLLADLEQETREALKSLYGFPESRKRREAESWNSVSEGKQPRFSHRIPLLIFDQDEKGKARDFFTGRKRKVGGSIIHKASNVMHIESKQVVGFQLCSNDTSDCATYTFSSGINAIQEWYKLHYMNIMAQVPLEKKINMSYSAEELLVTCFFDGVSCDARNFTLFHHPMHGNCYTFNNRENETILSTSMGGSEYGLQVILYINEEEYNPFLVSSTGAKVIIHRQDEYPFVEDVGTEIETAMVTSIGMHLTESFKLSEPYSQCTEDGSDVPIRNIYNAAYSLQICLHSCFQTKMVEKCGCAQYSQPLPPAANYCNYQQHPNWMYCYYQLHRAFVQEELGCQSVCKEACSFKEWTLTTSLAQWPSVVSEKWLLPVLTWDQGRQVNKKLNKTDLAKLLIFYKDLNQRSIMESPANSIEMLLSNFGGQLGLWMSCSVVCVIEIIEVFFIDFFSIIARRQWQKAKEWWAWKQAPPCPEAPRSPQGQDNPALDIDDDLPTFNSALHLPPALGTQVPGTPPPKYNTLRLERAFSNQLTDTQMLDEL
Sequence (P37088 whole entry): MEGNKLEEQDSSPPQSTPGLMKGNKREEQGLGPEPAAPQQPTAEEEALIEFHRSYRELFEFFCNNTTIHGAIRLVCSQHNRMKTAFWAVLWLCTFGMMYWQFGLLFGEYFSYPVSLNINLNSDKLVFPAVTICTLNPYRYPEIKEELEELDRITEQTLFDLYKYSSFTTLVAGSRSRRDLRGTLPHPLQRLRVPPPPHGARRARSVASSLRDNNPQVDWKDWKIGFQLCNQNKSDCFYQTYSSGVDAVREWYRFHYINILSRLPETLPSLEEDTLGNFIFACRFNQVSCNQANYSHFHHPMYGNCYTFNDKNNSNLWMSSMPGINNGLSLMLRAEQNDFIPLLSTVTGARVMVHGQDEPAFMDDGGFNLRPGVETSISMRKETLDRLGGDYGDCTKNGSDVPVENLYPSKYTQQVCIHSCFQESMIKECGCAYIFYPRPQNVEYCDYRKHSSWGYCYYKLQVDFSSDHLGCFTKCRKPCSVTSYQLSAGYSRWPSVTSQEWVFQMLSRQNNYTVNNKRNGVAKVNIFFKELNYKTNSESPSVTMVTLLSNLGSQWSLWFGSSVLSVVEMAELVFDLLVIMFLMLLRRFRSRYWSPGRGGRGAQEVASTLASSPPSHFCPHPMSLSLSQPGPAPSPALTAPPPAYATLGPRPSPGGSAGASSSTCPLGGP
Sequence (P51168 whole entry): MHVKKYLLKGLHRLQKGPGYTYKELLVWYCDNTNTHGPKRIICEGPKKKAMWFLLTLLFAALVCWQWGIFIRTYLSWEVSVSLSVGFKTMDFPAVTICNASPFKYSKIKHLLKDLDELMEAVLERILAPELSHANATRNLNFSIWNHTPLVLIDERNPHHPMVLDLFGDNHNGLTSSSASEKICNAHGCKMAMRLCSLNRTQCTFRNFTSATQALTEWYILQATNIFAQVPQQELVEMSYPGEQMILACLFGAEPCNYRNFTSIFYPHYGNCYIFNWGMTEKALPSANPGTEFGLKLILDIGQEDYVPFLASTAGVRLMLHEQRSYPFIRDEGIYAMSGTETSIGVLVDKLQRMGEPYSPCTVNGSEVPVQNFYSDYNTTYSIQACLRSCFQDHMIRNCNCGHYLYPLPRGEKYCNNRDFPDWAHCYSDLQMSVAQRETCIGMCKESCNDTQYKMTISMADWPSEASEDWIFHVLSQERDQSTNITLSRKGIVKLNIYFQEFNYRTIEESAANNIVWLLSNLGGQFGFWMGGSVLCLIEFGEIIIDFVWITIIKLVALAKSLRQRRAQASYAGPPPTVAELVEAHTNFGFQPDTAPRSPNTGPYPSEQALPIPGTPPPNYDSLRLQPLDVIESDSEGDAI

test smiles | IC50
CC(C)Oc1ccc(-c2ncc(CNc3ccnc(C(F)(F)F)c3)cn2)cc1Cl | > 30 µM

---

molecular target: NET human norepinephrine transporter (Homo sapiens, UniProt P23975); construct: Eurofins 302000; test: NET functional antagonist uptake assay (Eurofins)
Sequence (P23975 whole entry): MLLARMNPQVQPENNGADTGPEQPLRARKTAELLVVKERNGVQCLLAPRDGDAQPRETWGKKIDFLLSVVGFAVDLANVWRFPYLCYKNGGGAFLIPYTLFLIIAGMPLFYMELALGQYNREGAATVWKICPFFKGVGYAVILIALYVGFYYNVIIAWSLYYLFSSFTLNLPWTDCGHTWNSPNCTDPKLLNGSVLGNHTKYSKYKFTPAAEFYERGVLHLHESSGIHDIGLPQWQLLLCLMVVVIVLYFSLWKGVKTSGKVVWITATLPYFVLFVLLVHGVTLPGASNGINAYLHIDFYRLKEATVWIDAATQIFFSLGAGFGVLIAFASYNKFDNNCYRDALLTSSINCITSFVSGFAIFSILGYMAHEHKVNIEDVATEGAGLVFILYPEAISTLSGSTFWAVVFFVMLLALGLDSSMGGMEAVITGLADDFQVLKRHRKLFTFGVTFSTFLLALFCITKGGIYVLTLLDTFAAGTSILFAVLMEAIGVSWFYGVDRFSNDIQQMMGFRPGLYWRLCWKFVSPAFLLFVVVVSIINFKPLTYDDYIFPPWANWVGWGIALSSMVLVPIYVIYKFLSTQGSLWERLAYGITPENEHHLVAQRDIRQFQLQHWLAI
recorded endpoint: IC50

test smiles | target desc | recorded endpoint | reported value
CC(C)Oc1ccc(-c2ncc(CNc3ccnc(C(F)(F)F)c3)cn2)cc1Cl | NET human norepinephrine transporter (Homo sapiens, UniProt P23975) | IC50 | > 10 µM

---

experiment: In vivo PK study, IP, SC and PO; details: male, CD-1, mouse, plasma, sc, 20 mg/kg

molecule | Vd/F
CC(C)Oc1ccc(-c2ncc(CNc3ccnc(C(F)(F)F)c3)cn2)cc1Cl [Compound 24] | 0.12 L/kg

---

assay: In vivo PK study, IP, SC and PO; details: male, CD-1, mouse, plasma, po, 20 mg/kg

test smiles | endpoint unit | CL/F
CC(C)Oc1ccc(-c2ncc(CNc3ccnc(C(F)(F)F)c3)cn2)cc1Cl | mL/min/kg | 1.58

---

assay: In vivo PK study, IP, SC and PO; details: male, CD-1, mouse, plasma, sc, 20 mg/kg

test smiles | Tmax, h
CC(C)Oc1ccc(-c2ncc(CNc3ccnc(C(F)(F)F)c3)cn2)cc1Cl | 2

---

Target: hERG (Homo sapiens)
Construct: Cyprotex
Sequence (Q12809 whole entry): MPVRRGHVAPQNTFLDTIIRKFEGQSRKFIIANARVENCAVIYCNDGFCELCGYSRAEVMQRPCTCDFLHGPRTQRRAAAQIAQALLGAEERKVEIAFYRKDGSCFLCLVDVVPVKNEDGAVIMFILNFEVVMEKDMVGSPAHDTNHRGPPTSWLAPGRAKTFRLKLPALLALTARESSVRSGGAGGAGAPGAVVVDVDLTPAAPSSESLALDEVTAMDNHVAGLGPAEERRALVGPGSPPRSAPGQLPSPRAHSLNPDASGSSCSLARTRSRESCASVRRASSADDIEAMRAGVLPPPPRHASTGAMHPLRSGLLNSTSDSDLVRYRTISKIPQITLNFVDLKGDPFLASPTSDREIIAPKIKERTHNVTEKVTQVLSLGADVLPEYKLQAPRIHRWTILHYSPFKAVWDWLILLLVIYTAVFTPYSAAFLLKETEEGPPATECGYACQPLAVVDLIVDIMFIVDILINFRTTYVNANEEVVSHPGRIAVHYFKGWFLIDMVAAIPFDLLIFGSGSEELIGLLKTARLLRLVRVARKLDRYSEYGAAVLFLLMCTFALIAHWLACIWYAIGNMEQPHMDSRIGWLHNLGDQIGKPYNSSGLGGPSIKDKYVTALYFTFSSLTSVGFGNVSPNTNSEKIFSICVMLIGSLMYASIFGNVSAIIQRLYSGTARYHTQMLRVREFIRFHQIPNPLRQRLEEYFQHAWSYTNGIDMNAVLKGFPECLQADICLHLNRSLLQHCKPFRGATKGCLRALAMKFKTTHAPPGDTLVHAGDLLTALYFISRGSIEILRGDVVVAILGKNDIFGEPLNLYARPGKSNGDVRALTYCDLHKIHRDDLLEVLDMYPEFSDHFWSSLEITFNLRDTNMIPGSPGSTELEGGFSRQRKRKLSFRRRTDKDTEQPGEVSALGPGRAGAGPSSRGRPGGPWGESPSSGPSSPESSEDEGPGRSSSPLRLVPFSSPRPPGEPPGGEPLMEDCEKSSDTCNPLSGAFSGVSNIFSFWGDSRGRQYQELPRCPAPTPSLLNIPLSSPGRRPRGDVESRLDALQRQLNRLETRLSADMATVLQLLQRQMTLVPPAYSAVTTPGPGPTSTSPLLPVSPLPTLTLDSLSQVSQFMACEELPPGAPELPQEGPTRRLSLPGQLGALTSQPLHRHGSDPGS
Assay: hERG safety, single cell electrophysiology
Settings: read-out: hERG inhibition IC50
Experimental: 1.4.4 Pharmacokinetic and off-target functional assays (Cyprotex) Compound 24 was assayed at Cyprotex in functional assays for interference with important off-targets as well as important pharmacokinetic parameters. With the exception of plasma protein binding, a dose-response relationship was studied in order to calculate IC50 values. Table S10. Information on in vitro ADMET assays performed at Cyprotex. […]
pIC50: −log10 of the molar value.
recorded endpoint: pIC50

compound | target desc | reported value
CC(C)Oc1ccc(-c2ncc(CNc3ccnc(C(F)(F)F)c3)cn2)cc1Cl [Compound 24] | hERG (Homo sapiens) | 4.80

---

assay: In vivo PK study, IP, SC and PO; conditions: male, CD-1, mouse, plasma, po, 20 mg/kg
recorded endpoint: Cmax

compound | recorded endpoint | reported value
CC(C)Oc1ccc(-c2ncc(CNc3ccnc(C(F)(F)F)c3)cn2)cc1Cl [Compound 24] | Cmax | 45600 ng/mL

---

assay: In vivo PK study, IP, SC and PO; details: male, CD-1, mouse, plasma, ip, 20 mg/kg

compound | bioavailability, %
CC(C)Oc1ccc(-c2ncc(CNc3ccnc(C(F)(F)F)c3)cn2)cc1Cl [Compound 24] | 36.1

meta.source: paper PMC9929129
